Test: Plasma concentration in mouse at 30 mg/kg, po after 6 hrs
Type: ADME, organism-based
Parameters: dose 30 mg/kg, route oral
MEASURED_ENDPOINT: concentration at 6 h
Report field: quantity (unit follows the number).

Measured concentration at 6 h of `CC(C)[C@]1(C)SC(N[C@H]2C[C@H]3C[C@@H]2C[C@@H]3O)=NC1=O` : 1710 nM

---

Assay: Drug uptake in mouse adipose tissue fat at 30 mg/kg, po after 6 hrs
Type: ADME, organism-based
Set-up: dose 30 mg/kg, route oral
Conditions: read-out: Drug uptake
MEASURED_ENDPOINT: concentration at 6 h (nM)
Enter your answer as a number in nM; do not include the unit.

Measured concentration at 6 h of `CC(C)[C@]1(C)SC(N[C@H]2C[C@H]3C[C@@H]2C[C@@H]3O)=NC1=O` : 2020

---

Assay: Drug uptake in mouse adipose tissue fat at 30 mg/kg, po after 8 hrs
Type: ADME, organism-based
Design: dose 30 mg/kg, route oral
Settings: read-out: Drug uptake
MEASURED_ENDPOINT: concentration at 8 h
Report field: quantity (unit follows the number).

Measured concentration at 8 h of `CC(C)[C@]1(C)SC(N[C@H]2C[C@H]3C[C@@H]2C[C@@H]3O)=NC1=O` : 580 nM

---

Assay: Volume of distribution at steady state in Sprague-Dawley rat at 2 mg/kg, iv and 10 mg/kg, po
Type: ADME, organism-based
Conditions: in vivo, read-out: Vdss
MEASURED_ENDPOINT: Vd (L/kg)
Enter your answer as a number in L/kg; do not include the unit.

[[record]]
smiles_code = "CC(C)[C@]1(C)SC(N[C@H]2C[C@@H]3CC[C@H]2C3)=NC1=O"
reported_value = 1.53


Measured Vd of `CC(C)[C@]1(C)SC(N[C@H]2C[C@H]3C[C@@H]2C[C@@H]3O)=NC1=O` : 0.97

Measured Vd of `CC(C)(O)[C@]1(C)SC(N[C@H]2C[C@@H]3CC[C@H]2C3)=NC1=O` : 0.53

Measured Vd of `CC(C)[C@]1(C)SC(N[C@H]2C[C@H]3C[C@@H]2C[C@H]3O)=NC1=O` : 1.43

---

Experiment: Drug uptake in mouse adipose tissue fat at 10 mg/kg, po after 8 hrs
Type: ADME, organism-based
Parameters: dose 10 mg/kg, route oral
Conditions: read-out: Drug uptake
MEASURED_ENDPOINT: concentration at 8 h

Measured concentration at 8 h of `CC(C)[C@]1(C)SC(N[C@H]2C[C@H]3C[C@@H]2C[C@@H]3O)=NC1=O` : 130 nM

---

Test: Plasma concentration in mouse at 10 mg/kg, po after 6 hrs
Type: ADME, organism-based
Set-up: dose 10 mg/kg, route oral
MEASURED_ENDPOINT: concentration at 6 h (nM)
Enter your answer as a number in nM; do not include the unit.

Measured concentration at 6 h of `CC(C)[C@]1(C)SC(N[C@H]2C[C@H]3C[C@@H]2C[C@@H]3O)=NC1=O` : 380

---

Experiment: Plasma protein binding in mouse at 30 mg/kg, po after 4 hrs
Type: ADME, organism-based
Set-up: dose 30 mg/kg, route oral
Conditions: read-out: PPB (converted)
MEASURED_ENDPOINT: fraction unbound at 4 h
In your answer, state the number alone without any accompanying words.

Measured fraction unbound at 4 h of `CC(C)[C@]1(C)SC(N[C@H]2C[C@H]3C[C@@H]2C[C@@H]3O)=NC1=O` : 0.591
